The values you see were collected from PubChem BioAssay (NCATS).

# Tested on: HaCat
# ASSAY_NOTES: Cytotoxic Profiling of Annotated Libraries Using Quantitative High-Throughput Screening (AID 1296008); also: nearly all actives have a fitted effect of over 60% in size
# ASSAY_SETUP: Five cell lines viability, CellTiter-Glo ATP luminescence, 48-72 h
Records with an inconclusive call do not appear. Activity calls are given as the source filed them. Calls follow the shape of the dose curve; as a rule, active = well fitted inhibition curve with a large enough effect; inconclusive = small, poorly fitted or top-dose-only effect; inactive = flat fitted curve, though single readings scatter.
RECORDED_ENDPOINT: outcome

STRUCTURE_NOTATION	RECORDED_ENDPOINT	MEASURED_RESULT
CC1(C)S[C@@H]2[C@H](NC(=O)[C@H](NC(=O)N3CCN(S(C)(=O)=O)C3=O)c3ccccc3)C(=O)N2[C@H]1C(=O)O	outcome	inactive
COc1ccc(-c2cc(=S)ss2)cc1	outcome	inactive
COC(=O)Nc1nc2ccc(C(=O)C3CC3)cc2[nH]1	outcome	inactive
